- PROTOCOL_DESCRIPTION: DPPH free radical scavenging assay
- Procedure: The protocol of Brand-Williams et al. was used for the DPPH assay with some modifications. DPPH (4 mg) was dissolved in methanol (100 mL) to obtain a mixture of […] 1,1-diphenyl,2-picrylhydrazyl (DPPH). The stock solution of the various synthesized compounds was prepared in methanol with 1 mg/mL concentration. […] The solution was kept at 23 °C for 15 min incubation, followed by the absorbance measurement deliberated at 517 nm. […]
PROPERTY_NAME: pIC50
# pIC50 = -log10(concentration in molar units)

Consider the following illustrative entries.
INSERT INTO results (molecule, property_name, observed_result) VALUES
  ('CC(C)c1ccc(C[C@](C)(C=O)[C@@H](C[N+](=O)[O-])c2ccc(Cl)cc2)cc1 (mixture of isomers)', 'pIC50', 4.26),
  ('CC(C)c1ccc(C[C@](C)(C=O)[C@@H](C[N+](=O)[O-])c2ccco2)cc1 (mixture of isomers)', 'pIC50', 4.30),
  ('Cc1ccc([C@H](C[N+](=O)[O-])[C@@](C)(C=O)Cc2ccc(C(C)C)cc2)cc1 (mixture of isomers)', 'pIC50', 4.82);

Problem: If you can, please state the reported pIC50 value of COc1ccc([C@H](C[N+](=O)[O-])[C@@](C)(C=O)Cc2ccc(C(C)C)cc2)cc1 (mixture of isomers) .
Solution: 4.68

----------
- EXPERIMENTAL_TARGET: COX-2 (Homo sapiens, UniProt P35354)
- Construct: purchased Sigma Aldrich Germany C0858
- Sequence (P35354 18-604): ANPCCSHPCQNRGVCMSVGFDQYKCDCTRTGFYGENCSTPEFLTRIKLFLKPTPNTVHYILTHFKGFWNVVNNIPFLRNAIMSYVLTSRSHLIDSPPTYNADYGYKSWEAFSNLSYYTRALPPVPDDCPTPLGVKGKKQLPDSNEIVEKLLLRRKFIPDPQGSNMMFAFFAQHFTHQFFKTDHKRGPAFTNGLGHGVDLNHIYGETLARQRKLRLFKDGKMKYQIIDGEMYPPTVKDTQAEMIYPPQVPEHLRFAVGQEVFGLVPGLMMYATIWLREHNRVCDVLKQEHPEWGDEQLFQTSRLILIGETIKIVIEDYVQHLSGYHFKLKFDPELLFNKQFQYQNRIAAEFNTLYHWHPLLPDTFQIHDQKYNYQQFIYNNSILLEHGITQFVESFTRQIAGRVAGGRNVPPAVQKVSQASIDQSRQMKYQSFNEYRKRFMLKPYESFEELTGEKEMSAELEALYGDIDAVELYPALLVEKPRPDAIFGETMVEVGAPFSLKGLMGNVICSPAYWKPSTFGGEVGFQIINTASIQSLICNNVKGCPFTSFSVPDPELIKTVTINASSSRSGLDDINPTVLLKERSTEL
- PROTOCOL_DESCRIPTION: Cyclooxygenase (COX-2) inhibition assay
- Type: biochemical
- CONDITION_INFO: COX-2 selectivity over COX-1
PROPERTY_NAME: SI (calculated selectivity index)

INSERT INTO results (compound, property_name, observed_result) VALUES
  ('COc1ccccc1[C@H](C[N+](=O)[O-])[C@@](C)(C=O)Cc1ccc(C(C)C)cc1 (mixture of isomers)', 'SI (calculated selectivity index)', 7.2);

Problem: Request the reported SI (calculated selectivity index) associated with COc1ccc([C@H](C[N+](=O)[O-])[C@@](C)(C=O)Cc2ccc(C(C)C)cc2)cc1 (mixture of isomers)
Solution: 42.8

Problem: Quick one: Cc1ccc([C@H](C[N+](=O)[O-])[C@@](C)(C=O)Cc2ccc(C(C)C)cc2)cc1 (mixture of isomers)
Solution: 3.6

Problem: Now the compound CC(C)c1ccc(C[C@](C)(C=O)[C@@H](C[N+](=O)[O-])c2ccco2)cc1 (mixture of isomers)
Solution: 11.6

Problem: Further, for `CC(C)c1ccc(C[C@](C)(C(=O)O)[C@@H](C[N+](=O)[O-])c2ccccc2)cc1` ?
Solution: 23.2

Problem: Now the compound CC(C)c1ccc(C[C@](C)(C=O)[C@@H](C[N+](=O)[O-])c2ccc(Cl)cc2)cc1 (mixture of isomers)
Solution: 15.1

Problem: Same lookup for CC(C)c1ccc(C[C@](C)(C=O)[C@@H](C[N+](=O)[O-])c2ccccc2)cc1 (mixture of isomers) , please.
Solution: 12.2

----------
This document collects IC50 values reported for 5-LOX (Homo sapiens, UniProt P09917).
Return type: number; implicit unit nM.

INSERT INTO assay_data (molecule, observed_result) VALUES
  ('COc1ccc([C@H](C[N+](=O)[O-])[C@@](C)(C=O)Cc2ccc(C(C)C)cc2)cc1 (mixture of isomers)', 980),
  ('Cc1ccc([C@H](C[N+](=O)[O-])[C@@](C)(C=O)Cc2ccc(C(C)C)cc2)cc1 (mixture of isomers)', 9690);

Now for another entry.
Problem: Tell me the measured IC50 of CC(C)c1ccc(C[C@](C)(C=O)[C@@H](C[N+](=O)[O-])c2ccccc2)cc1 (mixture of isomers) , please.
Solution: 1810

----------
PROPERTY_NAME: melting point

Problem: Find the recorded melting point belonging to `CC(C)c1ccc(C[C@](C)(C(=O)O)[C@@H](C[N+](=O)[O-])c2ccccc2)cc1` and report it.
Solution: 243 to 245 °C

Problem: How about this compound: `COc1ccccc1[C@H](C[N+](=O)[O-])[C@](C)(Cc1ccc(C(C)C)cc1)C(=O)O`
Solution: 211 to 213 °C

Problem: COc1ccccc1[C@H](C[N+](=O)[O-])[C@@](C)(C=O)Cc1ccc(C(C)C)cc1 (mixture of isomers) , same question.
Solution: 129 to 131 °C

----------
pIC50 data for COX-1 (Homo sapiens, UniProt P23219) follow.
The scale used: pIC50 is minus the common logarithm of the concentration in molar units.

INSERT INTO assay_data (molecule, observed_result) VALUES
  ('CC(C)c1ccc(C[C@](C)(C=O)[C@@H](C[N+](=O)[O-])c2ccc(Cl)cc2)cc1 (mixture of isomers)', 4.42),
  ('COc1ccccc1[C@H](C[N+](=O)[O-])[C@@](C)(C=O)Cc1ccc(C(C)C)cc1 (mixture of isomers)', 4.23),
  ('CC(C)c1ccc(C[C@](C)(C=O)[C@@H](C[N+](=O)[O-])c2ccccc2)cc1 (mixture of isomers)', 4.83);

Problem: Quick one: pIC50 for COc1ccc([C@H](C[N+](=O)[O-])[C@@](C)(C=O)Cc2ccc(C(C)C)cc2)cc1 (mixture of isomers) ?
Solution: 4.50

----------
Readings of pIC50 for the listed compounds
- PROTOCOL_DESCRIPTION: DPPH free radical scavenging assay
Friendly reminder that pIC50 comes from taking -log10 of the concentration in mol/L.

Below are worked cases with known answers.
INSERT INTO measurements (compound, property_name, observed_result) VALUES
  ('COc1ccccc1[C@H](C[N+](=O)[O-])[C@@](C)(C=O)Cc1ccc(C(C)C)cc1 (mixture of isomers) [FM5]', 'pIC50', 3.74),
  ('CC(C)c1ccc(C[C@](C)(C=O)[C@@H](C[N+](=O)[O-])c2ccccc2)cc1 (mixture of isomers) [FM1]', 'pIC50', 4.26),
  ('O=C(O)c1cc(O)c(O)c(O)c1 [Gallic acid, reference compound]', 'pIC50', 5.04);

Problem: So what does the record say about pIC50 for CC(C)c1ccc(C[C@](C)(C(=O)O)[C@@H](C[N+](=O)[O-])c2ccccc2)cc1 [FM7] ?
Solution: 4.65

----------
PROPERTY_NAME: melting point

Consider the following illustrative entries.
INSERT INTO measurements (molecule, property_name, observed_result) VALUES
  ('CC(C)c1ccc(C[C@](C)(C(=O)O)[C@@H](C[N+](=O)[O-])c2ccc(Cl)cc2)cc1 [FM8]', 'melting point', '259 to 261 °C'),
  ('CC(C)c1ccc(C[C@](C)(C=O)[C@@H](C[N+](=O)[O-])c2ccccc2)cc1 (mixture of isomers) [FM1]', 'melting point', '149 to 151 °C');

Problem: Look up melting point for this molecule: Cc1ccc([C@H](C[N+](=O)[O-])[C@](C)(Cc2ccc(C(C)C)cc2)C(=O)O)cc1 [FM9]
Solution: 233 to 235 °C

Problem: And Cc1ccc([C@H](C[N+](=O)[O-])[C@@](C)(C=O)Cc2ccc(C(C)C)cc2)cc1 (mixture of isomers) [FM3] ?
Solution: 135 to 137 °C

Problem: Now consider CC(C)c1ccc(C[C@](C)(C=O)[C@@H](C[N+](=O)[O-])c2ccc(Cl)cc2)cc1 (mixture of isomers) [FM2] .
Solution: 173 to 175 °C

Problem: Quick one: CC(C)c1ccc(C[C@](C)(C=O)[C@@H](C[N+](=O)[O-])c2ccco2)cc1 (mixture of isomers) [FM6]
Solution: 161 to 163 °C
